Measurement record for JAK2 (Homo sapiens (Human), UniProt O60674); quantity recorded: pIC50.
pIC50: −log10 of the molar value.
readout-name: pIC50

[[record]]
molecule = "N#CCN1CC2(CCC(c3cccc4nc(NC(=O)[C@@H]5CC5(F)F)nn34)CC2)C1"
readout_name = "pIC50"
recorded_number = 5.93

[[record]]
molecule = "O=C(Nc1nc2cccc(C3CCC4(CC3)CN(C(=O)[C@@H]3CC3(F)F)C4)n2n1)[C@@H]1CC1(F)F"
readout_name = "pIC50"
recorded_number = 6.53

[[record]]
molecule = "O=C(Nc1nc2cccc(C3CCC4(CC3)CCN(C(=O)[C@@H]3CC3(F)F)C4)n2n1)C1CC1 (some centres unmarked) [Compound 5-8]"
readout_name = "pIC50"
recorded_number = 6.10

[[record]]
molecule = "N#CCC(=O)N1CC2(CCC(F)(c3cccc4nc(NC(=O)C5CC5)nn34)CC2)C1"
readout_name = "pIC50"
recorded_number = 5.70

[[record]]
molecule = "N#CCN1CC2(CCC(c3cccc4nc(NC(=O)[C@H]5CC5(F)F)nn34)CC2)C1"
readout_name = "pIC50"
recorded_number = 5.44

[[record]]
molecule = "O=C(Nc1nc2cccc(C3CCC4(CC3)CN(C(=O)[C@@H]3CC3(F)F)C4)n2n1)[C@H]1CC1(F)F"
readout_name = "pIC50"
recorded_number = 6.96

[[record]]
molecule = "N#CCC(=O)N1CCC2(CCC(c3c(F)ccc4nc(NC(=O)C5CC5)nn34)CC2)CC1"
readout_name = "pIC50"
recorded_number = 6.09

[[record]]
molecule = "O=C(Nc1nc2cccc(C3CCC4(CC3)CCN(C(=O)[C@@H]3CC3(F)F)C4)n2n1)C1CC1 (some centres unmarked) [Compound 5-7]"
readout_name = "pIC50"
recorded_number = 6.49


Source: patent US11919896B2
